Target: HCV genotype 1b Conl strain subgenomic luciferase replicon (Zluc)
Test: Luciferase replicon assay, genotype 1b
Type: cell-based
Details: genotype 1b, luciferase replicon, 72 hours; read-out: EC50 1b
Readout Kind: EC50

Query for HCV genotype 1b Conl strain subgenomic luciferase replicon (Zluc): what EC50 does the record show for COC(=O)N[C@H](C(=O)N1CCC[C@H]1c1nc2ccc(-c3csc4c(C#Cc5cnc([C@@H]6CCCN6C(=O)[C@H](NC(=O)OC)c6ccccc6)[nH]5)csc34)cc2[nH]1)C(C)C ?
< 100 pM

---

Assignment: determine reported EC50 for the given compounds.
System: Huh-7 cells containing HCV Con1 subgenomic replicon (GS4.1 cells)
Assay: HCV replicon assay (NS5A ELISA)
Format: cell-based
Conditions: Hepatitis C virus, Huh-7; GS4.1 cells, 72 hrs, NS5A ELISA; read-out: EC50

Using the record for CCOC(=O)N[C@@H](C(=O)N1CCC[C@H]1C(=O)Nc1cn2cc(-c3ccc(-c4cnc([C@@H]5CCCN5C(=O)[C@@H](NC(=O)OC)C(C)C)[nH]4)cc3)sc2n1)c1ccccc1 [Compound A55] , report its EC50.
< 1 nM

Using the record for CC(C)(C)OC(=O)N[C@@H](C(=O)N1CCC[C@H]1C(=O)Nc1cn2cc(C#Cc3ccccc3)sc2n1)c1ccccc1 [Compound A23] , report its EC50.
> 100 nM

Using the record for COC(=O)N[C@H](C(=O)N1CCC[C@H]1c1ncc(-c2ccc(-c3cn4cc(NC(=O)[C@@H]5CCCN5C(=O)[C@H](NC(=O)OC(C)C)c5ccccc5)nc4s3)cc2)[nH]1)C(C)C [A56] , report its EC50.
< 1 nM

Using the record for CC(C)(C)OC(=O)Nc1ccc(-c2cn3cc(NC(=O)[C@@H]4CCCN4C(=O)[C@H](NC(=O)OC(C)(C)C)c4ccccc4)nc3s2)cc1 [A29] , report its EC50.
> 100 nM

Using the record for COC(=O)N[C@H](C(=O)N1CCC[C@H]1c1ncc(-c2ccc(-c3cn4cc(NC(=O)CNC(=O)[C@H](NC(=O)OC(C)(C)C)c5ccccc5)nc4s3)cc2)[nH]1)C(C)C [A148] , report its EC50.
1 to 10 nM

Using the record for COC(=O)N[C@H](C(=O)N1CCCC1c1ncc(-c2ccc(-c3csc4c(-c5cnc(C6CCCN6C(=O)OCc6ccccc6)[nH]5)csc34)cc2)[nH]1)C(C)C (stereo partly drawn) [A49] , report its EC50.
< 1 nM
